test system: ACHN renal; experiment: NCI tumour cell line growth inhibition, 48 h
measurement-label: TGI (µM)

1) O=C(Nc1cccc(-n2cc(-c3ccncc3)c(-c3cc(O)cc(Cl)c3)n2)c1)Nc1ccc(Cl)c(Cl)c1
8.71
2) CCOc1ccc(/C=N/Nc2cc(C)nc3ccc(Cl)cc23)cc1
3.17

---

tested on: 786-0 renal; assay: NCI tumour cell line growth inhibition, 48 h
measurement-label: GI50

1) C[C@H]1O[C@@H](O[C@H]2[C@@H](O)C[C@H](O[C@H]3[C@@H](O)C[C@H](O[C@H]4CC[C@]5(C)C6C[C@@H](O)[C@]7(C)[C@@H](C8=CC(=O)OC8)CC[C@]7(O)C6CC[C@@H]5C4)O[C@@H]3C)O[C@@H]2C)C[C@H](O)[C@@H]1O (stereo not given in full)
60 nM
2) NC(=O)c1cccc(N)c1
> 100000 nM
3) COC(=O)C1=C2C3=C(C(=O)c4ccccc4C3=O)N(Cc3ccccc3)C2(OC(C)=O)C=CC1=O (stereo not given)
2280 nM
4) O=C(/C=C/c1ccccc1O)c1ccccc1
14400 nM
5) COc1cc(-c2nn(C)nc2-c2cc3ccccc3s2)cc(OC)c1OC
312 nM
